Where these numbers come from: patent US6448256B1

# Ki values compiled below
molecular target: B. subtilis DNA pol III (Bacillus subtilis, UniProt P13267); test: Inhibition of B. subtilis DNA pol III (Ki); assay type: biochemical; details: Table 2, prodrugs having the EMAU core; read-out: Ki B. subtilis DNA Pol III
Sequence (P13267 whole entry): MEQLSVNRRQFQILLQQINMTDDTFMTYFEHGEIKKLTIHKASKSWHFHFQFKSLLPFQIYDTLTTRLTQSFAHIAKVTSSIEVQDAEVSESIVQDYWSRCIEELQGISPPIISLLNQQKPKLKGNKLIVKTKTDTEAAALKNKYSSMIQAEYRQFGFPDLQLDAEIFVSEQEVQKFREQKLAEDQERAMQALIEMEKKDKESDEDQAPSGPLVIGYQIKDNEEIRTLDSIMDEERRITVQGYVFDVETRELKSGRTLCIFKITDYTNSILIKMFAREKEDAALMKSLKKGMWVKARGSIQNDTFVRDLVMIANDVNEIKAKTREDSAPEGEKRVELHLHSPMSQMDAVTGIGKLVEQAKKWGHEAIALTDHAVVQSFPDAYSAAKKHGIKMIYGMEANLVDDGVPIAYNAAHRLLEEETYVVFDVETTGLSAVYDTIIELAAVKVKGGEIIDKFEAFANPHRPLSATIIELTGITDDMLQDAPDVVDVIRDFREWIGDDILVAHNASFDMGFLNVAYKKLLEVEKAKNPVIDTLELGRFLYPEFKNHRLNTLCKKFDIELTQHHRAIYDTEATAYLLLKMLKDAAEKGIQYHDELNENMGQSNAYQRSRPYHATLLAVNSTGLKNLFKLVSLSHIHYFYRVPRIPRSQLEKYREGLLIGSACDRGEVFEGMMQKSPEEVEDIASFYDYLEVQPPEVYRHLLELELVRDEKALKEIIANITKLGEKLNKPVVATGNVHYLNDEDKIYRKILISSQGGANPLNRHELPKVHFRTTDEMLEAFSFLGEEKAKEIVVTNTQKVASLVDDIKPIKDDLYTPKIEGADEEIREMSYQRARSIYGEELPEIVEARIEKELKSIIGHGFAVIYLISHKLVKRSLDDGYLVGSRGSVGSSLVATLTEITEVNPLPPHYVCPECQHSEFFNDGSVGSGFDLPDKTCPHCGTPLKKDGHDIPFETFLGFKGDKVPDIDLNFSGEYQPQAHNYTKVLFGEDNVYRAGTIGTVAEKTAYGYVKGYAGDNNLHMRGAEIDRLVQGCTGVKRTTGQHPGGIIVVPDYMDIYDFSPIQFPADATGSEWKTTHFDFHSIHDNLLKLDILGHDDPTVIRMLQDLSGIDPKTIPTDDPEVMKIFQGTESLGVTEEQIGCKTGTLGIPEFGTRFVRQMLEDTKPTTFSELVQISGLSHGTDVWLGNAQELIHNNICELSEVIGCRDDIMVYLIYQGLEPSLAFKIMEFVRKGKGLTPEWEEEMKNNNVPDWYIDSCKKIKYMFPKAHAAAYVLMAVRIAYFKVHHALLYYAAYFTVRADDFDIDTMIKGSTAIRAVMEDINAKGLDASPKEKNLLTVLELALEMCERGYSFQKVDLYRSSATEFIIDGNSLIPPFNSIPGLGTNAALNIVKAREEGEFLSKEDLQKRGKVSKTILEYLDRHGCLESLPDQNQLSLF
Report the figure in nM without appending any unit label.

CCc1cc(Nc2cc(=O)n(CCCCOC(=O)C(C)N)c(=O)[nH]2)ccc1C (stereo not shown) = 180
CCc1cc(Nc2cc(=O)n(CCCCOC(=O)[C@@H](N)C(C)C)c(=O)[nH]2)ccc1C = 530
CCc1cc(Nc2cc(=O)n(CCCCOC(=O)C(N)Cc3ccccc3)c(=O)[nH]2)ccc1C (stereo not shown) = 6200

IN: Give B. subtilis DNA pol III (Bacillus subtilis, UniProt P13267) Ki for CCc1cc(Nc2cc(=O)n(CCCCOC(=O)C(NC(=O)OC(C)(C)C)C(C)C)c(=O)[nH]2)ccc1C (stereo not shown)
OUT: 4900

IN: // fetch B. subtilis DNA pol III (Bacillus subtilis, UniProt P13267) Ki for CCc1cc(Nc2cc(=O)n(CCCCOC(=O)C3CCCN3C(=O)OC(C)(C)C)c(=O)[nH]2)ccc1C (stereo not shown)
OUT: 3200

IN: Fill in the recorded Ki for this compound, with B. subtilis DNA pol III (Bacillus subtilis, UniProt P13267) as test system: CCc1cc(Nc2cc(=O)n(CCCCOC(=O)C(N)CO)c(=O)[nH]2)ccc1C.Cl (stereo not shown)
OUT: 10

IN: Short answer please: Ki, B. subtilis DNA pol III (Bacillus subtilis, UniProt P13267), entry CCc1cc(Nc2cc(=O)n(CCCCOC(=O)C(CO)NC(=O)OC(C)(C)C)c(=O)[nH]2)ccc1C (stereo not shown)
OUT: 1500
